# Target Desc: SpHof1-2
# Test Name: SPOT peptide array binding signal intensity (averaged, normalized) (arbitrary units (background-subtracted, floor 0; scale differs between SH3 domains)); higher = stronger binding of the SH3 domain to the peptide
Returns one of Met or Not met; Met when SPOT peptide array binding signal intensity is >= 10.

Consider the worked cases shown below.
Exercise: State whether the measured SPOT peptide array binding signal intensity reaches 10, counting equality as reaching it, for IVNKPLPPLPVAGSS
Solution: Met

Exercise: State whether the measured SPOT peptide array binding signal intensity reaches 10, counting equality as reaching it, for YHSRRHPLALGFKYV
Solution: Met

Exercise: State whether the measured SPOT peptide array binding signal intensity reaches 10, counting equality as reaching it, for RSLRKRPTSPSISGS
Solution: Met

Exercise: State whether the measured SPOT peptide array binding signal intensity reaches 10, counting equality as reaching it, for NFFRKKLGIPRKLKR
Solution: Not met

Exercise: State whether the measured SPOT peptide array binding signal intensity reaches 10, counting equality as reaching it, for LKVTPGRRAPTISKI
Solution: Not met

Exercise: State whether the measured SPOT peptide array binding signal intensity reaches 10, counting equality as reaching it, for LSKRLPLRFPEHTSS
Solution: Met

Shift focus to the following entry.
Exercise: State whether the measured SPOT peptide array binding signal intensity reaches 10, counting equality as reaching it, for DTIDNVKSKIQDKEG
Solution: Not met
